Where these numbers come from: a melting point compilation (Tetko et al.; mined from patent text by program, amines drawn as free bases though some values may be those of a salt)

Measurement name: melting point

>  <Molecule>
O=C(O)c1ccc(C(=O)Nc2cccc([N+](=O)[O-])c2)cc1

>  <Measurement>
319 °C

$$$$
>  <Molecule>
C=C(C)Cc1c(C)c(NC(=O)CC(C)(C)C)c(C)c(Cc2ccc(C(C)C)cc2)c1O

>  <Measurement>
124 to 125 °C

$$$$

Look at this molecule and give its reported melting point. CCC(C)N1C(=O)c2ccccc2Oc2ncccc21 (stereo not given) 137 to 138 °C

What about this molecule? NS(=O)(=O)c1ccc(NC(=O)CNc2ccccc2)cc1Cl 192 to 194 °C

What about this molecule? Cc1c(CCBr)c2cccc3c2n1CCS3 94 °C

What about this molecule? CC12CCC3C4CCC(=O)C=C4CCC3C1CCC2=O (stereo not given) 163 to 169 °C
